Measured IC50 values are reported for all entries that follow.
subjectOfTest: BCL-2 binding to BAD peptide (Homo sapiens, UniProt P10415)
Sequence (P10415 whole entry): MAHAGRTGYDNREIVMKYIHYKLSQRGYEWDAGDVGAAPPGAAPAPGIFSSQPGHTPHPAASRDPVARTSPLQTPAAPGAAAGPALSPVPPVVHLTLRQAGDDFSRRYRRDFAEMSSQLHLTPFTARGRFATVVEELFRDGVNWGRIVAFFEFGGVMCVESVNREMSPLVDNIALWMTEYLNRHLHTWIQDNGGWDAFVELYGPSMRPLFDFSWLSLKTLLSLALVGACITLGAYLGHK

Entry under test: CCCCN(CCCC)C(=O)c1cc(C)n(-c2ccc(-c3cccc(Cl)c3Cl)cc2C(=O)N2Cc3ccccc3C[C@H]2CO)n1 [Example 45] . Its IC50 was 7160 to 7600 nM

Entry under test: CCCCN(CCCC)C(=O)c1cc(C)n(-c2ccc(-c3cccc(S(C)(=O)=O)c3)cc2C(=O)N2Cc3ccccc3C[C@H]2CO)n1 [Example 38] . Its IC50 was 885 to 891 nM

Entry under test: CCCCN(CCCC)C(=O)c1cc(C)n(-c2ccc(-c3ccc(F)c(F)c3)cc2C(=O)N2Cc3ccccc3C[C@H]2CO)n1 [Example 44] . Its IC50 was 2090 to 2180 nM

Entry under test: CCCCN(CCCC)C(=O)c1nn(-c2ccc(-c3ccc(N(C)C)nc3)cc2C(=O)N2Cc3ccccc3C[C@H]2CO)c(C)c1Cl [Example 8] . Its IC50 was 745 to 750 nM

Entry under test: CCCCN(CCCC)C(=O)c1cc(C)n(-c2ccc(-c3c(OC)cccc3OC)cc2C(=O)N2Cc3ccccc3C[C@H]2CO)n1 [Example 65] . Its IC50 was 10600 to 12300 nM

Entry under test: CCCCN(CCCC)C(=O)c1cc(C)n(-c2ccc(-c3ccc4ccccc4c3)cc2C(=O)N2Cc3ccccc3C[C@H]2CO)n1 [Example 67] . Its IC50 was 823 to 857 nM

###

Endpoint: pIC50. System: BCL-2 binding to BAK peptide (Homo sapiens, UniProt P10415). Items follow.
Sequence (P10415 whole entry): as above
pIC50: −log10 of the molar value.

Study these solved cases before continuing.
Fill in: BCL-2 binding to BAK peptide (Homo sapiens, UniProt P10415) pIC50 for `CCCCN(CCCC)C(=O)c1cc(C)n(-c2ccc(-c3cccc4cnccc34)cc2C(=O)N2Cc3ccccc3C[C@H]2CO)n1` = 6.11 to 6.22

Fill in: BCL-2 binding to BAK peptide (Homo sapiens, UniProt P10415) pIC50 for `CCCCN(CCCC)C(=O)c1cc(C)n(-c2ccc(-c3cc(Cl)ccc3OC)cc2C(=O)N2Cc3ccccc3C[C@H]2CO)n1` = 6.07 to 6.10

Fill in: BCL-2 binding to BAK peptide (Homo sapiens, UniProt P10415) pIC50 for `CCCCN(CCCC)C(=O)c1cc(C)n(-c2ccc(-c3cccc(OC(F)(F)F)c3)cc2C(=O)N2Cc3ccccc3C[C@H]2CO)n1` = 6.12 to 6.13

Fill in: BCL-2 binding to BAK peptide (Homo sapiens, UniProt P10415) pIC50 for `CCCCN(CCCC)C(=O)c1cc(C)n(-c2ccc(-c3ccc(OC(C)C)cc3)cc2C(=O)N2Cc3ccccc3C[C@H]2CO)n1` = 6.21 to 6.25

Fill in: BCL-2 binding to BAK peptide (Homo sapiens, UniProt P10415) pIC50 for `CCCCN(CCCC)C(=O)c1cc(C)n(-c2ccc(N3CCN(Cc4cccc(Cl)c4)C(=O)C3)cc2C(=O)N2Cc3ccccc3C[C@H]2CO)n1` = 6.81 to 6.83

Next:
Fill in: BCL-2 binding to BAK peptide (Homo sapiens, UniProt P10415) pIC50 for `CCCCN(CCCC)C(=O)c1cc(C)n(-c2ccc(-c3cccc(OC)c3)cc2C(=O)N2Cc3ccccc3C[C@H]2CO)n1` = 6.16 to 6.20

Fill in: BCL-2 binding to BAK peptide (Homo sapiens, UniProt P10415) pIC50 for `CCCCN(CCCC)C(=O)c1cc(C)n(-c2ccc(N3CCOCC3=O)cc2C(=O)N2Cc3ccccc3C[C@H]2CO)n1` = 5.18 to 5.22

Fill in: BCL-2 binding to BAK peptide (Homo sapiens, UniProt P10415) pIC50 for `CCCCN(CCCC)C(=O)c1cc(C)n(-c2ccc(-c3cc(C)cc(C)c3)cc2C(=O)N2Cc3ccccc3C[C@H]2CO)n1` = 6.04 to 6.05

Fill in: BCL-2 binding to BAK peptide (Homo sapiens, UniProt P10415) pIC50 for `CCCCN(CCCC)C(=O)c1cc(C)n(-c2ccc(-c3cccc(F)c3Cl)cc2C(=O)N2Cc3ccccc3C[C@H]2CO)n1` = 5.14 to 5.20

Fill in: BCL-2 binding to BAK peptide (Homo sapiens, UniProt P10415) pIC50 for `CCCCN(CCCC)C(=O)c1cc(C)n(-c2ccc(-c3ccc4cc(OC)ccc4c3)cc2C(=O)N2Cc3ccccc3C[C@H]2CO)n1` = 6.16 to 6.25

Fill in: BCL-2 binding to BAK peptide (Homo sapiens, UniProt P10415) pIC50 for `CCCCN(CCCC)C(=O)c1cc(C)n(-c2ccc(-c3ccc(OC)c4ccccc34)cc2C(=O)N2Cc3ccccc3C[C@H]2CO)n1` = < 4.80

Fill in: BCL-2 binding to BAK peptide (Homo sapiens, UniProt P10415) pIC50 for `CCCCN(CCCC)C(=O)c1cc(C)n(-c2ccc(-c3c(-c4ccccc4)noc3C)cc2C(=O)N2Cc3ccccc3C[C@H]2CO)n1` = 5.34 to 5.35

Fill in: BCL-2 binding to BAK peptide (Homo sapiens, UniProt P10415) pIC50 for `CCCCN(CCCC)C(=O)c1cc(C)n(-c2ccc(N3CCOCC3)cc2C(=O)N2Cc3ccccc3C[C@H]2CO)n1` = 6.07 to 6.14

###

Endpoint: pIC50. System: BCL-2 binding to BAD peptide (Homo sapiens, UniProt P10415). Items follow.
pIC50: −log10 of the molar value.

Study these solved cases before continuing.
Fill in: BCL-2 binding to BAD peptide (Homo sapiens, UniProt P10415) pIC50 for `CCCCN(CCCC)C(=O)c1cc(C)n(-c2ccc(-c3ccc(OC(C)C)cc3)cc2C(=O)N2Cc3ccccc3C[C@H]2CO)n1` = 6.12 to 6.14

Fill in: BCL-2 binding to BAD peptide (Homo sapiens, UniProt P10415) pIC50 for `CCCCN(CCCC)C(=O)c1nn(-c2ccc(-c3ccc(N)nc3)cc2C(=O)N2Cc3ccccc3C[C@H]2CO)c(C)c1Cl` = 6.54 to 6.64

Fill in: BCL-2 binding to BAD peptide (Homo sapiens, UniProt P10415) pIC50 for `CCCCN(CCCC)C(=O)c1cc(C)n(-c2ccc(-c3cc(OC)c(OC)c(OC)c3)cc2C(=O)N2Cc3ccccc3C[C@H]2CO)n1` = 6.53 to 6.55

Next:
Fill in: BCL-2 binding to BAD peptide (Homo sapiens, UniProt P10415) pIC50 for `CCCCN(CCCC)C(=O)c1cc(C)n(-c2ccc(-c3cccc(OC(F)(F)F)c3)cc2C(=O)N2Cc3ccccc3C[C@H]2CO)n1` = 6.07 to 6.08

Fill in: BCL-2 binding to BAD peptide (Homo sapiens, UniProt P10415) pIC50 for `CCCCN(CCCC)C(=O)c1cc(C)n(-c2ccc(-c3cc(F)cc(OC(C)C)c3)cc2C(=O)N2Cc3ccccc3C[C@H]2CO)n1` = 6.19 to 6.20

Fill in: BCL-2 binding to BAD peptide (Homo sapiens, UniProt P10415) pIC50 for `CCCCN(CCCC)C(=O)c1cc(C)n(-c2ccc(-c3ccc(NC(C)=O)cc3)cc2C(=O)N2Cc3ccccc3C[C@H]2CO)n1` = 6.26 to 6.34

###

Endpoint: IC50. System: BCL-2 binding to BAD peptide (Homo sapiens). Items follow.

Study these solved cases before continuing.
Entry under test: `CCCCN(CCCC)C(=O)c1cc(C)n(-c2ccc(N3CCCCC3)cc2C(=O)N2Cc3ccccc3C[C@H]2CO)n1` . Its IC50 was 2.36 to 2.74 µM

Entry under test: `CCCCN(CCCC)C(=O)c1nn(-c2ccc(-c3cnn(Cc4ccccc4)c3)cc2C(=O)N2Cc3ccccc3C[C@H]2CO)c(C)c1Cl` . Its IC50 was 0.127 to 0.148 µM

Entry under test: `CCCCN(CCCC)C(=O)c1nn(-c2ccc(-c3cc[nH]n3)cc2C(=O)N2Cc3ccccc3C[C@H]2CO)c(C)c1Cl` . Its IC50 was 0.739 to 0.77 µM

Next:
Entry under test: `CCCCN(CCCC)C(=O)c1cc(C)n(-c2ccc(N3CCN(Cc4ccccc4Cl)C(=O)C3)cc2C(=O)N2Cc3ccccc3C[C@H]2CO)n1` . Its IC50 was 0.18 to 0.202 µM

Entry under test: `CCCCN(CCCC)C(=O)c1cc(C)n(-c2ccc(-c3ccc(OC)c4ccccc34)cc2C(=O)N2Cc3ccccc3C[C@H]2CO)n1` . Its IC50 was > 16 µM

Entry under test: `CCCCN(CCCC)C(=O)c1cc(C)n(-c2ccc(-c3ccc(C(=O)NCC)c(F)c3)cc2C(=O)N2Cc3ccccc3C[C@H]2CO)n1` . Its IC50 was 0.312 to 0.319 µM

Entry under test: `CCCCN(CCCC)C(=O)c1cc(C)n(-c2ccc(N3CCN(Cc4ccc(Cl)cc4)C(=O)C3)cc2C(=O)N2Cc3ccccc3C[C@H]2CO)n1` . Its IC50 was 0.474 to 0.506 µM

Entry under test: `CCCCN(CCCC)C(=O)c1cc(C)n(-c2ccc(-c3ccc(Cl)c(C(N)=O)c3)cc2C(=O)N2Cc3ccccc3C[C@H]2CO)n1` . Its IC50 was 0.6 to 0.623 µM

Entry under test: `CCCCN(CCCC)C(=O)c1cc(C)n(-c2ccc(N3CCN(C(=O)OC(C)(C)C)CC3=O)cc2C(=O)N2Cc3ccccc3C[C@H]2CO)n1` . Its IC50 was 2.02 to 2.21 µM

Entry under test: `CCCCN(CCCC)C(=O)c1cc(C)n(-c2ccc(-c3cccc(C)c3)cc2C(=O)N2Cc3ccccc3C[C@H]2CO)n1` . Its IC50 was 0.619 to 0.631 µM

Entry under test: `CCCCN(CCCC)C(=O)c1cc(C)n(-c2ccc(-c3ccc(F)c(C#N)c3)cc2C(=O)N2Cc3ccccc3C[C@H]2CO)n1` . Its IC50 was 0.41 to 0.465 µM

Entry under test: `CCCCN(CCCC)C(=O)c1nn(-c2ccc(-c3ccc(OC)nc3)cc2C(=O)N2Cc3ccccc3C[C@H]2CO)c(C)c1Cl` . Its IC50 was 0.843 to 0.958 µM

Entry under test: `CCCCN(CCCC)C(=O)c1cc(C)n(-c2ccc(-c3cccc(C(=O)O)c3)cc2C(=O)N2Cc3ccccc3C[C@H]2CO)n1` . Its IC50 was 0.11 to 0.119 µM

Entry under test: `CCCCN(CCCC)C(=O)c1cc(C)n(-c2ccc(-c3cccc(OC)c3)cc2C(=O)N2Cc3ccccc3C[C@H]2CO)n1` . Its IC50 was 0.896 to 0.978 µM

Entry under test: `CCCCN(CCCC)C(=O)c1cc(C)n(-c2ccc(N3CCOCC3)cc2C(=O)N2Cc3ccccc3C[C@H]2CO)n1` . Its IC50 was 1.4 to 1.52 µM

Entry under test: `CCCCN(CCCC)C(=O)c1nn(-c2ccc(-c3ccccc3)cc2C(=O)N2Cc3ccccc3C[C@H]2CO)c(C)c1Cl` . Its IC50 was 1.48 to 1.58 µM

The measured values listed here are drawn from patent US20140350014A1.
